The molecules listed here are annotated with their kon.
Biological target: T1, recombinant endotrophin protein (Homo sapiens, UniProt P12111)
T1 construct: the latter consisting of 77 amino acids at the carboxy-terminal of the COL6α3 chain; CD33 signal peptide (N, cleaved yes); His-tag with EK-cleavage site (N, cleaved yes); purchased Sino Biological, Beijing, China; host or cells: HEK293
T1 sequence (P12111 3101-3177): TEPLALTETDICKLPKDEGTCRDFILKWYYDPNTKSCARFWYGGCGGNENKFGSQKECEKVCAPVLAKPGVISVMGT
Experiment: Affinity measurement with BLI (Octet RED96)
Conditions: Octet (96-Red), 1:1 binding model

ETP-mAb4: rabbit monoclonal anti-human endotrophin antibody selected for further study; VH SEQ ID NO: 125, VL SEQ ID NO: 126 (antibody, V domains shown) VH: SSRVKESGGDLVKPGASLTLTCKASGFSFSSGYYICWVRQAPGKGLEWIACIYGGNNNPYYANWVNGRFTTSKTSSTTVTLQMTNLTGADTATYFCARKDINIGGAYELWGPGTLVTISS VL: ELVMTQTPASVSEPVGGTVTINCQASQSISSSYLSWYQQKPGQPPKLLIYKASTLASGVPSRFKGSGSGTQFSLTISDLECADAATYYCQYSDWANSYGNAFGGGTEVVVK
1.42 E+05 1/Ms

Now let's try a different one.
Recorded kon (molecule ETP-mAb4.2: humanized IgG1 version of ETPmAb4; VH SEQ ID NO: 159, VL SEQ ID NO: 158 (antibody, V domains shown, human IgG1 constant regions) VH: EVQLLESGGGLVQPGGSLRLSCAASGFSFSSGYYICWVRQAPGKGLEWIACIYGGNSNPYYANWVNGRFTISRDNSKNTLYLQMNSLRAEDTAVYYCARKDINIGGAYELWGQGTLVTVSS VL: DIQMTQSPSSLSASVGDRVTITCQASQSISSSYLSWYQQKPGKAPKLLIYKASTLASGVPSRFSGSGSGTDFTLTISSLQPEDFATYYCQYSDWANSYGNAFGGGTKVEIK ): 1.23 E+05 1/Ms
